Target: GABA B receptor (Rattus norvegicus, UniProt O88871+Q9Z0U4)
Sequence (Q9Z0U4 whole entry): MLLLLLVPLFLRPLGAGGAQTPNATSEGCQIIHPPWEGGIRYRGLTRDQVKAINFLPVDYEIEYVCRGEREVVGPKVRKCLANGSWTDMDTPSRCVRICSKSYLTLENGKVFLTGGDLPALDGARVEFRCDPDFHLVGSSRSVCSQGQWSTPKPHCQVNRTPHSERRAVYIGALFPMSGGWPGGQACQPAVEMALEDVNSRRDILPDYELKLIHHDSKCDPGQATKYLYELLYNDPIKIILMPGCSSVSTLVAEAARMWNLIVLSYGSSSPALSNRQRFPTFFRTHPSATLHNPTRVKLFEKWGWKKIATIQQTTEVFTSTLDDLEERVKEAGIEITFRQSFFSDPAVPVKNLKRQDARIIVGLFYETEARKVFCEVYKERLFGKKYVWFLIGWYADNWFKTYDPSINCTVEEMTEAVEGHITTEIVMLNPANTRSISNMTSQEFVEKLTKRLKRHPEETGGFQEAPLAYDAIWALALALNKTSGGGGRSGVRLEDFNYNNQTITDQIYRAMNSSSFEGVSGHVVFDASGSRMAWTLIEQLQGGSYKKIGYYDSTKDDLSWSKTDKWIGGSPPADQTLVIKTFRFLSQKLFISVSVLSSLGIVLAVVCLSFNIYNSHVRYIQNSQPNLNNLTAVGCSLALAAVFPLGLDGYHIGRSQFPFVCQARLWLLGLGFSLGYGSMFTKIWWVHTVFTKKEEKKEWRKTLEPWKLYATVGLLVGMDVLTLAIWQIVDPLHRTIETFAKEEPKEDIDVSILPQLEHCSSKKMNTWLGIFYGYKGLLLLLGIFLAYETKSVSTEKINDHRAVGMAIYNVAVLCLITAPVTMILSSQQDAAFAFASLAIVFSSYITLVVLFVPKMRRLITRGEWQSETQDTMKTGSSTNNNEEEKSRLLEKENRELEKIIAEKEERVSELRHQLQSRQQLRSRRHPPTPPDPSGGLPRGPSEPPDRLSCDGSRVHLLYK
Sequence (O88871 whole entry): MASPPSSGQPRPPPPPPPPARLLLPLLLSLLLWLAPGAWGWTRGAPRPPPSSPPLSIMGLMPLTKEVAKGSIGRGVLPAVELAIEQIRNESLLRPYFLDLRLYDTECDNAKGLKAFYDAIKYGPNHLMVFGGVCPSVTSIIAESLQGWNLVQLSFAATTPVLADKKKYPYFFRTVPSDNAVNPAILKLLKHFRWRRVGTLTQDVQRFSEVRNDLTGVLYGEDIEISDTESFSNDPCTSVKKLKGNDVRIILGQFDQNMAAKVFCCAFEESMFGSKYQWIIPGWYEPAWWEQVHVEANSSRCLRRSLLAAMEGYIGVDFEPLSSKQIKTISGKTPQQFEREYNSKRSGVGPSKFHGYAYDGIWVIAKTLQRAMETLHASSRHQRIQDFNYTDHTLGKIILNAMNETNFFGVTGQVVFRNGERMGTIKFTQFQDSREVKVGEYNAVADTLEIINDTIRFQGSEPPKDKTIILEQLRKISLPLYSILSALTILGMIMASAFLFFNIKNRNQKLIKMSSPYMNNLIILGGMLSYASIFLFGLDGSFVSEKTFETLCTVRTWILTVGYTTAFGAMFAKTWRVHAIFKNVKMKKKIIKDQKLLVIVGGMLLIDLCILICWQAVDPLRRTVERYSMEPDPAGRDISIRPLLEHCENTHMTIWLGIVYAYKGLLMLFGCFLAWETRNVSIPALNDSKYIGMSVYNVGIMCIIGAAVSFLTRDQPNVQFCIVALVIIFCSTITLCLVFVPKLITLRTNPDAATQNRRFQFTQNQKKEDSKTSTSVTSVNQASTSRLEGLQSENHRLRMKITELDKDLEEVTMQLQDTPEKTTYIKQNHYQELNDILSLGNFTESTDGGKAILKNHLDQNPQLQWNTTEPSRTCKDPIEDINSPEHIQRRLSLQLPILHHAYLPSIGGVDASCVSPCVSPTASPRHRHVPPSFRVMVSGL
Assay: Inhibition of [3H]baclofen binding to rat gamma-aminobutyric acid type B receptor.
Item-by-item account of pIC50
Answer as the number alone; pIC50 is minus log10 of concentration in mol/L.

# annotated cases, reported pIC50 shown
# compound, observation type, test value
rows = [
    ("NCC(CC(=O)O)c1cc(Cl)cs1 (centres undefined)", "pIC50", 4.34),
    ("Cc1ccsc1C(CN)CC(=O)O (centres undefined)", "pIC50", 3.91),
    ("NCC(CC(=O)O)c1cccc(Cl)c1 (centres undefined)", "pIC50", 4.70),
    ("NCC(CC(=O)O)c1ccccc1Cl (centres undefined)", "pIC50", 6.10),
    ("NCC(CC(=O)O)c1cccs1 (centres undefined)", "pIC50", 5.01),
]

### Prompt Recall the reported pIC50 of NCC(CC(=O)O)c1ccc(Br)s1 (centres undefined) on GABA B receptor (Rattus norvegicus, UniProt O88871+Q9Z0U4) and write it down.
### Response 5.73

### Prompt Recall the reported pIC50 of NCC(CC(=O)O)c1cc(Br)cs1 (centres undefined) on GABA B receptor (Rattus norvegicus, UniProt O88871+Q9Z0U4) and write it down.
### Response 4.41

### Prompt Recall the reported pIC50 of NCC(CC(=O)O)c1ccc(Cl)s1 (centres undefined) on GABA B receptor (Rattus norvegicus, UniProt O88871+Q9Z0U4) and write it down.
### Response 6.21

### Prompt Recall the reported pIC50 of Cc1ccc(C(CN)CC(=O)O)s1 (centres undefined) on GABA B receptor (Rattus norvegicus, UniProt O88871+Q9Z0U4) and write it down.
### Response 5.87

### Prompt Recall the reported pIC50 of `NC[C@H](CC(=O)O)c1ccc(F)cc1` on GABA B receptor (Rattus norvegicus, UniProt O88871+Q9Z0U4) and write it down.
### Response 5.88

### Prompt Recall the reported pIC50 of NCC(CC(=O)O)c1ccsc1 (centres undefined) on GABA B receptor (Rattus norvegicus, UniProt O88871+Q9Z0U4) and write it down.
### Response 4.68
